# kon annotations
molecular target: T1, low-density lipoprotein receptor-related protein 1 (LRP-1) (UniProt Q07954 20-4544); assay: SPR; BIAcore T200; LRP-1 immobilised on a CM5 chip by amine coupling (3000 RU); 25 °C; 150 mM NaCl, 10 mM CaCl2, 50 mM Tris-HCl, 0.01% Tween-20, pH 7.5; 30 μl/min; ligands or pre-formed complexes injected; one-site binding model; triplicate; conditions: both partners purified
T1 construct: low-density lipoprotein receptor-related protein 1 (LRP-1), bought from Biomac; source: bought: Biomac (Leipzig, Germany)
T1 sequence (Q07954 20-4544): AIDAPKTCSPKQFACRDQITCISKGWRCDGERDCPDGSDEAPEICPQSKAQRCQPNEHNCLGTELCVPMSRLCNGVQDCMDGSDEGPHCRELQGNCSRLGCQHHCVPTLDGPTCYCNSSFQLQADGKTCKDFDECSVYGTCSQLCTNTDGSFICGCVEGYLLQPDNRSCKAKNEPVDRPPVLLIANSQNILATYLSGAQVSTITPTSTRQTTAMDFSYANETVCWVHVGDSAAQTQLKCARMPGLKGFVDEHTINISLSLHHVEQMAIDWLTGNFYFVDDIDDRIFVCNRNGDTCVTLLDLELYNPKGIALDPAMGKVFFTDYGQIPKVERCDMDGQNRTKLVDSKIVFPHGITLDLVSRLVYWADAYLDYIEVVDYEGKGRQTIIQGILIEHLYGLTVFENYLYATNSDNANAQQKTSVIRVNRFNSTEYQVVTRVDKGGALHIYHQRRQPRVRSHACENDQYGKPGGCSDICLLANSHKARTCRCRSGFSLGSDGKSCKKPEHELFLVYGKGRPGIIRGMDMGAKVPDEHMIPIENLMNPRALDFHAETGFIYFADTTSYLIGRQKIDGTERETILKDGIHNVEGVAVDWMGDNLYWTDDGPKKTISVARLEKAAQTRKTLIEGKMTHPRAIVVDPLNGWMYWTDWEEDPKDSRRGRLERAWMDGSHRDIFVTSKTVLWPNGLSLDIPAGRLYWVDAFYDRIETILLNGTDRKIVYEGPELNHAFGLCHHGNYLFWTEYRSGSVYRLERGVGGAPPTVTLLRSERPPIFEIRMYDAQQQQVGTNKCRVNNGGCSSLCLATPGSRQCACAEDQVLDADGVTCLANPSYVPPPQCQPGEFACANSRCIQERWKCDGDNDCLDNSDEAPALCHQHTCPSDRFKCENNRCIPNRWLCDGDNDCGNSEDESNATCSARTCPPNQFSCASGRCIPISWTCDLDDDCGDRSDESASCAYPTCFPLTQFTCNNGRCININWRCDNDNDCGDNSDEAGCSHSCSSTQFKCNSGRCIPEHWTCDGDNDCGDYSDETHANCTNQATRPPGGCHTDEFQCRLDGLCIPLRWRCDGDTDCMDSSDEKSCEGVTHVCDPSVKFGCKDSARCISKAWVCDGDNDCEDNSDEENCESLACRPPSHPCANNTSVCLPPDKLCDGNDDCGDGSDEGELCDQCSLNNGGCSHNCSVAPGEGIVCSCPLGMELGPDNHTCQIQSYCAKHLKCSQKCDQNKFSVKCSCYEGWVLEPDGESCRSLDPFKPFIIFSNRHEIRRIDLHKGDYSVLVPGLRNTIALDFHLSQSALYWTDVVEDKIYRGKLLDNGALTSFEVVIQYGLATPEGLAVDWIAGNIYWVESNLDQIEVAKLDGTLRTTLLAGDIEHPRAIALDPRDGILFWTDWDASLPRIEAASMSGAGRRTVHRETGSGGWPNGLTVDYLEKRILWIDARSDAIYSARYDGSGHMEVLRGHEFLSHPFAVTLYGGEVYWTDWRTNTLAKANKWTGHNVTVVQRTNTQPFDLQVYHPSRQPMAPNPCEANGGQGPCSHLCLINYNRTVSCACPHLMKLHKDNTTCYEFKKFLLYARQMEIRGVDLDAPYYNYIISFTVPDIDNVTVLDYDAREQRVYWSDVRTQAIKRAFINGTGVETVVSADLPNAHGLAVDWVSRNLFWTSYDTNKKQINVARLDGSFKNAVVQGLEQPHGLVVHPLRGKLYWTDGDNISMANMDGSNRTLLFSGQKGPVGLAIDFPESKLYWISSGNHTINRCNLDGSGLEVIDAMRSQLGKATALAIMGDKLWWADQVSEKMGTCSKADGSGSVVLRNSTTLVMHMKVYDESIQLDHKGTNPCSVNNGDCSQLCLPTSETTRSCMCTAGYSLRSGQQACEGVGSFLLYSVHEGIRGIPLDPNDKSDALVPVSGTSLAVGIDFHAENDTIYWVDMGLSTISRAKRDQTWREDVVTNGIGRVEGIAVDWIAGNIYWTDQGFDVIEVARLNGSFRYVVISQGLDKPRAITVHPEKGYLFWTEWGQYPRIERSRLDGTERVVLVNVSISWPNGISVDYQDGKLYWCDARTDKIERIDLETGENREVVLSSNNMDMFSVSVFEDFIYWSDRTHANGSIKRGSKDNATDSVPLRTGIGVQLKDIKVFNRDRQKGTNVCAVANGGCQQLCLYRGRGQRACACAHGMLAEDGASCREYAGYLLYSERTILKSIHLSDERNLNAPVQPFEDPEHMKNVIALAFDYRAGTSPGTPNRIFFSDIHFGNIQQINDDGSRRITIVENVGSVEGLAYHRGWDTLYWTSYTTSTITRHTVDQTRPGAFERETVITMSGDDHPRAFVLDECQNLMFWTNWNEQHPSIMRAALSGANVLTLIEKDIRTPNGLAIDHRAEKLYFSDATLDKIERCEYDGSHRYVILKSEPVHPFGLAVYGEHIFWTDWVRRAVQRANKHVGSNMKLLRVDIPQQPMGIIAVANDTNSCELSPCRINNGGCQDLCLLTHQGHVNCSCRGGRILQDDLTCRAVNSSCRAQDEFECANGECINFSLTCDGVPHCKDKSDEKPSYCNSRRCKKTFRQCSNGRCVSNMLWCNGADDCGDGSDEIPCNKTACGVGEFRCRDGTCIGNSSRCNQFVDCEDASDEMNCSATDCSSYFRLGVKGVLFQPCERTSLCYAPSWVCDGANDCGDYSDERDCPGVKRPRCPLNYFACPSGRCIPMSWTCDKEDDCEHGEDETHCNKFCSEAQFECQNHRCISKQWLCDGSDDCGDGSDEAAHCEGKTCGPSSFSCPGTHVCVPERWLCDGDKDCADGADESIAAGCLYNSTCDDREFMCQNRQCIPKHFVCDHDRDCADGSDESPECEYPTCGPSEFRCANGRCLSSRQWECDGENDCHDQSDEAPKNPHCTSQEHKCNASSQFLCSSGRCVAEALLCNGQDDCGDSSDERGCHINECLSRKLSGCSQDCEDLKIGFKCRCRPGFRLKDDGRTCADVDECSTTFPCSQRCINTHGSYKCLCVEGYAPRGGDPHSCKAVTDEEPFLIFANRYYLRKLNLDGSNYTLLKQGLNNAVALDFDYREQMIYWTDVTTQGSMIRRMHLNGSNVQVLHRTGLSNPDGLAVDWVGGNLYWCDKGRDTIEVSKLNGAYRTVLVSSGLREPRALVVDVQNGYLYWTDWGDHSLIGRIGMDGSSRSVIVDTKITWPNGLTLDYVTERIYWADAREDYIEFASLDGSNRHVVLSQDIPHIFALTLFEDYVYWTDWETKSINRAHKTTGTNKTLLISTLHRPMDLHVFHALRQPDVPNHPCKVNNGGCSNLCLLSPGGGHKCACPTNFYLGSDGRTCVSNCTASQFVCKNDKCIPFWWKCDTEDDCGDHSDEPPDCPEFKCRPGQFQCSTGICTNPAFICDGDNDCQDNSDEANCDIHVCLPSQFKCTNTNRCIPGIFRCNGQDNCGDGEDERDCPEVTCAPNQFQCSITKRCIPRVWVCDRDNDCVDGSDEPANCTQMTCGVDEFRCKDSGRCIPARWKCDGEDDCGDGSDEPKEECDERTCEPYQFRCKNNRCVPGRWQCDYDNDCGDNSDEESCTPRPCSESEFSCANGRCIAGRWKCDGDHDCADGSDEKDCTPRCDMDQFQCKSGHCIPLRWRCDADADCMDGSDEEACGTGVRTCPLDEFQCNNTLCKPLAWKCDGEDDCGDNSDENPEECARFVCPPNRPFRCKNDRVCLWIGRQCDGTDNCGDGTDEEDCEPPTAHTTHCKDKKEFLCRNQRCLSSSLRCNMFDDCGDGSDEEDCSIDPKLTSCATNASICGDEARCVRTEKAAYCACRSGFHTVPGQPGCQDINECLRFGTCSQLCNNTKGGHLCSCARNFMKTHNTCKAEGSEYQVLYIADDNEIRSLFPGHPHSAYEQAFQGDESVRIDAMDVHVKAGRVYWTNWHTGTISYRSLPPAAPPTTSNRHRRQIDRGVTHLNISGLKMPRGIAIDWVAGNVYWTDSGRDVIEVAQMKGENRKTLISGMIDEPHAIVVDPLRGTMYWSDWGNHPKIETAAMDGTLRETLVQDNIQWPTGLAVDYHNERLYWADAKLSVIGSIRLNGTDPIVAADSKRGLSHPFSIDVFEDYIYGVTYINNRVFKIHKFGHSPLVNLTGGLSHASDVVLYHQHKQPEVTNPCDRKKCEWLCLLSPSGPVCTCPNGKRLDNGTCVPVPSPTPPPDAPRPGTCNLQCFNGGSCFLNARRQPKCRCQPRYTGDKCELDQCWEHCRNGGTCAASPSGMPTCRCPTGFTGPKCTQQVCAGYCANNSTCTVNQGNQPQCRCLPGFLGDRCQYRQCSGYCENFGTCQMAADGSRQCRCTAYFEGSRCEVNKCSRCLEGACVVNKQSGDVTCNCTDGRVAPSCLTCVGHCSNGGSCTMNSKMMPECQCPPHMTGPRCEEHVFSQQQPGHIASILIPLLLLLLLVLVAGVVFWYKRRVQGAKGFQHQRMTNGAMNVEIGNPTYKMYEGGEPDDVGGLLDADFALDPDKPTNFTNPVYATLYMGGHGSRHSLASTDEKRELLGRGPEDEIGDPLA
Write the answer as a number in M⁻¹ s⁻¹, unit excluded.

Receptor-associated protein (RAP), recombinant His-tagged (natural protein, UniProt P30533 35-357, looked up) YSREKNQPKPSPKRESGEEFRMEKLNQLWEKAQRLHLPPVRLAELHADLKIQERDELAWKKLKLDGLDEDGEKEARLIRNLNVILAKYGLDGKKDARQVTSNSLSGTQEDGLDDPRLEKLWHKAKTSGKFSGEELDKLWREFLHHKEKVHEYNVLLETLSRTEEIHENVISPSDLSDIKGSVLHSRHTELKEKLRSINQGLDRLRRVSHQGYSTEAEFEEPRVIDLWDLAQSANLTDKELEAFREELKHFEAKIEKHNHYQKQLEIAHEKLRHAESVGDGERVSRSREKHALLEGRTKELGYTVKKHLQDLSGRISRARHNEL = 6.88e+06
MMP-1ΔC/TIMP-3 complex (complex, catalytic domain of human MMP-1; pro-domain removed with APMA; as m8; as m3) chain 1: FVLTEGNPRWEQTHLTYRIENYTPDLPRADVDHAIEKAFQLWSNVTPLTFTKVSEGQADIMISFVRGDHRDNSPFDGPGGNLAHAFQPGPGIGGDAHFDEDERWTNNFREYNLHRVAAHELGHSLGLSHSTDIGALMYPSYTFSGDVQLAQDDIDGIQAIYGRSQNPVQP chain 2: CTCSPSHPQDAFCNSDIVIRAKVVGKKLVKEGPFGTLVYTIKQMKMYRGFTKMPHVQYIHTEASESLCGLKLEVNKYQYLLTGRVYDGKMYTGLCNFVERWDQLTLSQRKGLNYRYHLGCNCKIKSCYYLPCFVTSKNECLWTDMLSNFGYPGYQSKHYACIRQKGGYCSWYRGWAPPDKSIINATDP = 396000
FLAG-tagged N-TIMP-3 (N-terminal domain of TIMP-3) (domain or fragment, UniProt P35625 24-143, looked up) CTCSPSHPQDAFCNSDIVIRAKVVGKKLVKEGPFGTLVYTIKQMKMYRGFTKMPHVQYIHTEASESLCGLKLEVNKYQYLLTGRVYDGKMYTGLCNFVERWDQLTLSQRKGLNYRYHLGC = 567000

Now turn to the next binder.
input: Could you tell me which kon is on file for FLAG-tagged TIMP-3 (natural protein, UniProt P35625 24-211, looked up, also called T3; [35S]TIMP-3) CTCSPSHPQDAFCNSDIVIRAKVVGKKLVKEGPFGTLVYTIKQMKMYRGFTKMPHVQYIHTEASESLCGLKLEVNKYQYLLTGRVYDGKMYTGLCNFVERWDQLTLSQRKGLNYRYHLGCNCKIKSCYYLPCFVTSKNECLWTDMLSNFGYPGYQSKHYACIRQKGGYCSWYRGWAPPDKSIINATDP ?
output: 2.31e+06
